- Measured On: T1, Human EphA2 (Ecto) (Human, UniProt P29317 24-537)
- T1 construct: extracellular domain; in-house)
- Test Details: FP competition; tracer Reference Compound A
Starred links: 1 amine or outer side, 2 acyl side, 3 side chain; linkers in the order of their positions; H or OH if unused. Positions of bridges follow the written chain, without caps; N, C: chain ends. No end group written: not given here. TATA = O=C(CC[*:1])N1CN(C(=O)CC[*:2])CN(C(=O)CC[*:3])C1
Recorded Metric: Ki (nM)
Could you give me the number in nM? Just the number is fine.

ACYVGKECAYMNVCA (linker 2-8-14 via TATA) [Bicycle Compound Number 29 (TATA scaffold), ACYVGKECAYMNVCA] ... 87.7

Note down Ki recorded for ACQPSNHCAFMNYCA (linker 2-8-14 via TATA) [Bicycle Compound Number 30 (TATA scaffold), ACQPSNHCAFMNYCA]
137

Note down Ki recorded for ACTSCWAYPDSFCA (linker 2-5-13 via TATA) [Bicycle Compound Number 32 (TATA scaffold), ACTSCWAYPDSFCA]
151
